Tested on: AAVS1
Assay: GFP insertion at AAVS1 in T cells with SpyCas9 RNP and gapped AAV templates, flow cytometry (Example 6)
Assay type: cell-based, human
Conditions: Donor 1; Template B; day 7 post-editing
Strand notation (5' to 3'): a small letter for the sugar, then the base; units joined by * are phosphorothioate-linked, units joined directly phosphodiester-linked; [ ] holds rarer units or linkages, { } end groups; capitals alone tell only the bases. m = 2'-O-methyl; r = 2'-OH (RNA)
Entries and their Mean percentage of T cells positive for GFP expression values follow.
Number in %, nothing else.

{"molecule": "G013562: AAVS1 SpyCas9 guide RNA, guide sequence SEQ ID NO: 259, chr19:55115834-55115854 (nucleic acid) guide: mA*mA*mU*rArUrArArGrGrUrGrGrUrCrCrCrArGrCrUrGrUrUrUrUrArGrAmGmCmUmAmGmAmAmAmUmAmGmCrArArGrUrUrArArArArUrArArGrGrCrUrArGrUrCrCrGrUrUrArUrCrAmAmCmUmUmGmAmAmAmAmAmGmUmGmGmCmAmCmCmGmAmGmUmCmGmGmUmGmCmU*mU*mU*mU", "quantitative_result": 63.60}
{"molecule": "G013559: AAVS1 SpyCas9 guide RNA, guide sequence SEQ ID NO: 258, chr19:55115823-55115843 (nucleic acid) guide: mC*mC*mG*rGrCrCrCrUrGrGrGrArArUrArUrArArGrGrGrUrUrUrUrArGrAmGmCmUmAmGmAmAmAmUmAmGmCrArArGrUrUrArArArArUrArArGrGrCrUrArGrUrCrCrGrUrUrArUrCrAmAmCmUmUmGmAmAmAmAmAmGmUmGmGmCmAmCmCmGmAmGmUmCmGmGmUmGmCmU*mU*mU*mU", "quantitative_result": 65.55}
{"molecule": "G013565: AAVS1 SpyCas9 guide RNA, guide sequence SEQ ID NO: 262, chr19:55115850-55115870 (nucleic acid) guide: mG*mG*mA*rUrCrCrUrGrUrGrUrCrCrCrCrGrArGrCrUrGrUrUrUrUrArGrAmGmCmUmAmGmAmAmAmUmAmGmCrArArGrUrUrArArArArUrArArGrGrCrUrArGrUrCrCrGrUrUrArUrCrAmAmCmUmUmGmAmAmAmAmAmGmUmGmGmCmAmCmCmGmAmGmUmCmGmGmUmGmCmU*mU*mU*mU", "quantitative_result": 63.50}

Then there is this molecule:
Form field: reported Mean percentage of T cells positive for GFP expression of G000562: AAVS1 SpyCas9 guide RNA, guide sequence SEQ ID NO: 251, chr19:55115695-55115715 (nucleic acid) guide: mC*mC*mA*rArUrArUrCrArGrGrArGrArCrUrArGrGrArGrUrUrUrUrArGrAmGmCmUmAmGmAmAmAmUmAmGmCrArArGrUrUrArArArArUrArArGrGrCrUrArGrUrCrCrGrUrUrArUrCrAmAmCmUmUmGmAmAmAmAmAmGmUmGmGmCmAmCmCmGmAmGmUmCmGmGmUmGmCmU*mU*mU*mU
34.00
